# Test system: HaCaT
# assay.notes: Induction of cyp24A1 mRNA expression in human HaCaT cells at 100 nM after 24 hrs by real-time PCR relative to 1-alpha,25-dihydroxyvitamin D3
# Assay type: functional
measured.endpoint: Activity (%)

- C=C1[C@H](O)CC(=C/C=C2\CCC[C@]3(C)[C@@H]([C@H](C)CC#C[C@H](O)CC45CC6CC(CC(C6)C4)C5)CC[C@@H]23)C[C@H]1O: 10
- C=C1[C@H](O)CC(=C/C=C2\CCC[C@]3(C)[C@@H]([C@H](C)CC#C[C@@H](O)C45CC6CC(CC(C6)C4)C5)CC[C@@H]23)C[C@H]1O: 30
- C=C1[C@H](O)CC(=C/C=C2\CCC[C@]3(C)[C@@H]([C@H](C)CC#C[C@H](O)C45CC6CC(CC(C6)C4)C5)CC[C@@H]23)C[C@H]1O: 22
- C=C1[C@H](O)CC(=C/C=C2\CCC[C@]3(C)[C@@H]([C@H](C)CC#C[C@@H](O)CC45CC6CC(CC(C6)C4)C5)CC[C@@H]23)C[C@H]1O: 10
